Molecular target: Potassium channel subfamily K member 9 (Homo sapiens) (UniProt Q9NPC2)
Sequence (Q9NPC2 whole entry, looked up): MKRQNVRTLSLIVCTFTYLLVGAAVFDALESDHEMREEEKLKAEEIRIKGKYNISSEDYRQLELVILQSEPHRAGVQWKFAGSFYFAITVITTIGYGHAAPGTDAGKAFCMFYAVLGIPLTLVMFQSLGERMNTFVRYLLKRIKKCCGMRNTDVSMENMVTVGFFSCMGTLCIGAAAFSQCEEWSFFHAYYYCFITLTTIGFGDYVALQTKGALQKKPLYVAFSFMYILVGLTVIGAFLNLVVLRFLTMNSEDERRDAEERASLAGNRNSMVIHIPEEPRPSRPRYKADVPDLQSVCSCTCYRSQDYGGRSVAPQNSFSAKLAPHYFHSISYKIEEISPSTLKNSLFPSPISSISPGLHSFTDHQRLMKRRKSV
Assay: KCNK9 potassium channel inhibitors, confirmation, HEK293 cells, thallium flux, duplicate (AID 492992)
Details: FluxOR thallium flux fluorescence, at 10 µM
Out of some 4,900 compounds screened, about 2,100 (43%) were called active.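 Rule for the calls: active = thallium signal inhibited by more than 5 SD of the compound-free buffer control wells, on both duplicate plates; inactive = the rest.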 So high a share suggests a set chosen from earlier hits. Not all results are given here.
Assign a class; possible classes are active, inactive

Below, 2 molecules whose answers are already recorded.
| Molecule | Label |
| --- | --- |
| CC(C)(C)C1CCC(C(=O)NCC(c2cccs2)N2CCOCC2)CC1 (stereo not drawn) | inactive |
| COCCNc1cc(-c2ccccc2)nc2cc(-c3cccc(F)c3)nn12 | active |

Okay, next one:
Any idea what this test logged for O=C(COC(=O)c1ccccc1)Nc1ccccc1Sc1ccccc1 ?
active

###

Target: Potassium channel subfamily K member 9 (Homo sapiens) (UniProt Q9NPC2)
Test: KCNK9 potassium channel inhibitors, confirmation, HEK293 cells, thallium flux, duplicate (AID 492992);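 for inhibition: 0% = assay buffer control wells without compound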
Settings: FluxOR thallium flux fluorescence, at 10 µM; active compounds read high
In all, about 4,900 compounds went through this assay and about 2,100 (43%) were called active. So high a share suggests a set chosen from earlier hits. The list is a sample of the results.
Measure: inhibition

# count of solved cases: 5
| Molecule | Measure | Meas value |
| --- | --- | --- |
| Cc1ccnc(N2CCN(C(=O)CSc3nc4ccccc4nc3N3CCCCC3)CC2)c1 | inhibition | inactive |
| CCC(C)(C)n1nnnc1C(c1cccs1)N1CCN(c2nc3ccccc3s2)CC1 (stereo not drawn) | inhibition | 39% (active) |
| O=C(OCC(=O)N(CCc1ccccc1)Cc1ccccc1)c1ccccc1[N+](=O)[O-] | inhibition | 58.5% (active) |
| COc1cccc(COc2ccc(N(C)S(=O)(=O)c3ccccc3)cc2)c1 | inhibition | 50% (active) |
| O=C(COC(=O)c1c2c(nc3ccccc13)CCCC2)c1ccc(Br)s1 | inhibition | inactive |

Please tell me: inhibition of COc1ccc(C(CCN(Cc2ccc(OC)c(OC)c2)C(=O)CCl)c2ccccc2)cc1 (stereo not drawn) , system Potassium channel subfamily K member 9 (Homo sapiens) (UniProt Q9NPC2)?
36% (active)

Would you mind doing Cc1ccccc1N1CCN(Cc2nc(Cc3ccccc3F)no2)CC1 as well?
inactive

Would you mind doing CCCCNC(=S)N/N=C1\CCCCc2ccccc21 as well?
inactive

Would you mind doing CCC1=NN(C(=O)Cc2ccc([N+](=O)[O-])cc2)C(O)(c2ccc(Br)cc2)C1 (stereo not drawn) as well?
65% (active)

Would you mind doing CN(C)c1ccc(C(CNC(=O)c2ccc(F)cc2)c2c[nH]c3ccccc23)cc1 (stereo not drawn) as well?
inactive

Would you mind doing CCC/C=C(\CCC)C(NC(=O)Cc1ccccc1)c1ccc(C(=O)OC)cc1 (stereo not drawn) as well?
67% (active)

Would you mind doing COc1ccc(OC)c(-c2csc(-c3cccs3)n2)c1 as well?
inactive

Would you mind doing CN(C)S(=O)(=O)N1CCC(Oc2cccc(C(=O)NCCCC3CCCC3)c2)CC1 as well?
62% (active)

Would you mind doing Cc1nn(CC(=O)Nc2nc3ccccc3s2)c(C)c1[N+](=O)[O-] as well?
48% (active)

Would you mind doing CN(CCOc1ccccc1)C(=O)c1cc(COc2c(F)cccc2F)on1 as well?
inactive

Would you mind doing O=C(NC1Cc2ccccc2C1)c1cc(COc2cccc(C(F)(F)F)c2)on1 as well?
inactive

Would you mind doing CCOC(=O)C1=C(C)Nc2sc(C(=O)c3ccc(Br)cc3)c(N)c2C1c1ccc(C(=O)OC)cc1 (stereo not drawn) as well?
31% (active)

Would you mind doing CCC1(C)Cc2c(sc3[nH]c(=S)n(Cc4ccccc4)c(=O)c23)CO1 (stereo not drawn) as well?
inactive
